The following compounds are listed with their measured IC90 values.
Tested on: Phytophthora capsici (Pc)
Experiment: In vitro pathogen growth inhibition assay, Pc
Format: cell-based
Details: 48 h, ≥90% inhibition, 48 hours vs 2% DMSO control, read-out: Compound Concentration (ppm) sufficient for ≥90% inhibition of growth, Pc
result-type: IC90

COc1ccccc1[C@H](Cn1c(=O)n(C(C)(C)C(=O)NC(C)C)c(=O)c2c(C)c(-c3ncco3)sc21)O[C@H]1CC[C@@H](O)CC1 [Compound I-012] :: > 50 µg/mL
COc1ccc(F)cc1[C@H](Cn1c(=O)n(C(C)(C)C(=O)N2CCCCC2)c(=O)c2c(C)c(-n3nccn3)sc21)OC1CCOCC1 [Compound I-036] :: > 50 µg/mL
COc1ccc(F)cc1[C@H](Cn1c(=O)n(CC(=O)NC(C)C)c(=O)c2c(C)c(-n3nccn3)sc21)OCCO [Compound I-087] :: > 50 µg/mL
COc1ccc(F)cc1[C@H](Cn1c(=O)n(C(C)(C)C(=O)NC(C)C)c(=O)c2c(C)c(-n3cccn3)sc21)OC[C@@H](C)O [Compound I-134] :: ≥ 10 µg/mL
CCOC(=O)c1sc2c(c1C)c(=O)n(C(C)(C)C(N)=O)c(=O)n2C[C@H](OC(C)C)c1ccccc1OC [Compound I-155] :: > 50 µg/mL
COCCOc1ccc(F)cc1[C@H](Cn1c(=O)n(C(C)(C)C(=O)NC(C)C)c(=O)c2c(C)c(-n3nccn3)sc21)OC1CCOCC1 [Compound I-076] :: ≥ 50 µg/mL
COc1ccc(F)cc1[C@H](Cn1c(=O)n(C(C)C(=O)N2CCCC2)c(=O)c2c(C)c(-n3cccn3)sc21)OC(C)C (stereo partly shown) [Compound I-062] :: 50 µg/mL
CCNC(=O)C(C)(C)n1c(=O)c2c(C)c(-n3nccn3)sc2n(C[C@H](OC(C)C)c2cc(F)ccc2OC)c1=O [Compound I-019] :: > 50 µg/mL
COc1ccc(F)cc1[C@H](Cn1c(=O)n(C(C)(C)C(=O)O)c(=O)c2c(C)c(-n3nccn3)sc21)OC1CCC(=O)CC1 [Compound I-158] :: 50 µg/mL
COc1ccc(F)cc1[C@H](Cn1c(=O)n(C(C)(C)C(=O)NC(C)C)c(=O)c2c(C)c(-c3ncco3)sc21)OC(C)C [Compound I-018] :: > 50 µg/mL
COc1ccc(F)cc1[C@H](Cn1c(=O)n(C(C)(C)C(=O)NCC#N)c(=O)c2c(C)c(-n3nccn3)sc21)OC(C)C [Compound I-160] :: > 50 µg/mL
COc1ccccc1[C@H](Cn1c(=O)n(C(C)(C)C(=O)NC2CCC2)c(=O)c2c(C)c(-c3ncco3)sc21)OC1CCOCC1 [Compound I-099] :: > 50 µg/mL
COc1ccc(F)cc1[C@H](Cn1c(=O)n(C(C)(C)C(N)=O)c(=O)c2c(C)c(-n3nccn3)sc21)OC1CCOCC1 [Compound I-102] :: 10 µg/mL
